subject.of.test: mouse TREX1 (Mus musculus)
Construct: N-terminally His-Tev tagged full length mouse TREX1
Sequence (Q91XB0 whole entry): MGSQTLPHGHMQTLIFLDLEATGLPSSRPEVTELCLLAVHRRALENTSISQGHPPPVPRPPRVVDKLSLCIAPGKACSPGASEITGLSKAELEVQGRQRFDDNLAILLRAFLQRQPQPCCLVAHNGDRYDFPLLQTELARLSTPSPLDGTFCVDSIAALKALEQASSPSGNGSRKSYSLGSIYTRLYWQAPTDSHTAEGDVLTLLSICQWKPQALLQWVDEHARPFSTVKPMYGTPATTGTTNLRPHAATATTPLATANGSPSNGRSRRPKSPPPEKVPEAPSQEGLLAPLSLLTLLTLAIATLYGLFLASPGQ
method: mTREX1 Biochemical Assay (fluorescence, dsDNA substrate degradation)
condition: full length mouse TREX1, 4 h pre-incubation, 18 h reaction at 25° C.
pIC50: −log10 of the molar value.
experimental.readout: pIC50

Some entries whose results are on file:
>>> observed_value("CC(c1nc(C(=O)Nc2cnoc2)c(O)c(=O)n1C)C(c1ccccc1)c1cc(Cl)ccc1C#N (single isomer, unassigned) [Example 8 Isomer 1]")
"< 8.00"
>>> observed_value("CC(c1nc(C(=O)Nc2cnoc2)c(O)c(=O)n1C)C(c1ccccc1)c1ccccc1C#N (single isomer, unassigned) [Example 3 Isomer 2]")
"< 8.00"
>>> observed_value("CC(c1nc(C(=O)Nc2cnoc2)c(O)c(=O)n1C)C(c1ccccc1)c1ccc(Cl)cc1C#N (single isomer, unassigned) [Example 9 Isomer 3]")
"< 8.00"
>>> observed_value("CC(c1nc(C(=O)Nc2cnoc2)c(O)c(=O)n1C)C(c1ccccc1Cl)c1ccccc1C#N (single isomer, unassigned) [Example 10 Isomer 2]")
"< 8.00"
>>> observed_value("CC(c1nc(C(=O)Nc2cnoc2)c(O)c(=O)n1C)C(c1ccccc1)c1cc(Cl)ccc1C#N (single isomer, unassigned) [Example 8 Isomer 2]")
"8.00 to 9.00"

Respond only with pIC50 recorded for C[C@H](c1nc(C(=O)Nc2cnoc2)c(O)c(=O)n1C)[C@H](c1ccccc1)c1ccccc1Cl (single isomer, unassigned) [Example 2 Isomer 2] < 8.00

State its pIC50: CC(c1nc(C(=O)Nc2cnoc2)c(O)c(=O)n1C)C(c1ccccc1)c1ccccc1C#N (single isomer, unassigned) [Example 3 Isomer 4] 8.00 to 9.00

Give reported pIC50 value for Cn1c(CC(c2ccccc2)c2ccccc2)nc(C(=O)Nc2cnoc2)c(O)c1=O [Example A] < 8.00

Please report the measured pIC50 for CC(c1nc(C(=O)Nc2cnoc2)c(O)c(=O)n1C)C(c1ccc(F)cc1F)c1ccccc1C#N (single isomer, unassigned) [Example 13 Isomer 3] < 8.00

Tell me measured pIC50 for CC(c1nc(C(=O)Nc2cnoc2)c(O)c(=O)n1C)C(c1ccc(F)c(F)c1)c1ccccc1C#N (single isomer, unassigned) [Example 12 Isomer 3] please. > 9.00

Look up and report measured pIC50 for this entry: CC(c1nc(C(=O)Nc2cnoc2)c(O)c(=O)n1C)C(c1ccc(F)cc1F)c1ccccc1C#N (single isomer, unassigned) [Example 13 Isomer 1] > 9.00

Provide measured pIC50 value, entry: CC(c1nc(C(=O)Nc2cnoc2)c(O)c(=O)n1C)C(c1cc(F)cc(F)c1)c1ccccc1C#N (single isomer, unassigned) [Example 11 Isomer 2] < 8.00

Using known records, supply pIC50 for Cn1c(C(C)(C)C(c2ccccc2)c2ccccc2)nc(C(=O)Nc2cnoc2)c(O)c1=O [Example B] < 8.00

Specify pIC50 for Cn1c([C@@H](C(c2ccccc2C#N)c2ccccc2C#N)C(F)(F)F)nc(C(=O)Nc2cnoc2)c(O)c1=O (single isomer, unassigned) [Example 21 Isomer 2] and stop. < 8.00

Given CC(c1nc(C(=O)Nc2cnoc2)c(O)c(=O)n1C)C(c1ccccc1)c1cc(C(=O)N(C)C)ccc1C#N (single isomer, unassigned) [Example 17 Isomer 4] , respond with its pIC50. < 8.00

Answer with reported pIC50 of CC(c1nc(C(=O)Nc2cnoc2)c(O)c(=O)n1C)C(c1ccccc1)c1cc(C(=O)N(C)C)ccc1C#N (single isomer, unassigned) [Example 17 Isomer 3] 8.00 to 9.00

Complete the entry with pIC50 for C[C@H](c1nc(C(=O)Nc2cnoc2)c(O)c(=O)n1C)[C@H](c1ccccc1)c1ccccc1Cl (single isomer, unassigned) [Example 2 Isomer 4] < 8.00

Supply measured pIC50 of CC(c1nc(C(=O)Nc2cnoc2)c(O)c(=O)n1C)C(c1ccccc1)c1cc(C(=O)N(C)C)ccc1C#N (single isomer, unassigned) [Example 17 Isomer 2] in your reply. < 8.00
